From: a melting point compilation (Tetko et al.; mined from patent text by program, amines drawn as free bases though some values may be those of a salt)

value-kind: melting point

compound=Cc1cc(C)cc(-c2nc(NC(=O)Cc3ccccc3)sc2-c2ccncc2)c1 value_kind="melting point" result="226 to 229 °C"
compound="COc1ccc(C(N)CN)cc1 (configuration not stated)" value_kind="melting point" result="64 °C"
compound=O=c1[nH]c2cc(Cl)ccc2c(=O)n1-c1ccccc1 value_kind="melting point" result="> 300 °C"
compound=COc1cc(OCC2CC2)c(/C=C/C(=O)c2ccc(C(=O)O)cc2)cc1-c1cccs1 value_kind="melting point" result="187 to 191 °C"
compound="O=C1C(c2ccccc2)c2cccc3c2N1CCN3 (configuration not stated)" value_kind="melting point" result="168 to 171 °C"
compound=CCOC(=O)c1ccc2nc3c(c(=O)n2c1)CSC3 value_kind="melting point" result="183 to 185 °C"
compound="Brc1cncc(C2CCCCN2)c1 (configuration not stated)" value_kind="melting point" result="97 to 97.5 °C"
compound=CCn1c(=O)c2c(nc(C=Cc3cccc(OC)c3O)n2C)n(CC)c1=O value_kind="melting point" result="225 to 226 °C"
compound=CCOC(=O)/C=C/c1ccc(OCCOC)cc1Oc1ncc(Cl)cc1Cl value_kind="melting point" result="70.7 to 71.3 °C"
compound=CCc1nc(/C=C/c2cccc(O)c2)sc1C value_kind="melting point" result="161 to 162 °C"
compound="CCCCC(Cc1ccc(OCCNC(=O)c2ccc(-c3cccc(CN(C)C)c3)cc2)cc1)C(=O)O (configuration not stated)" value_kind="melting point" result="95 to 97 °C"
compound=O=C(c1cc2ccnc(Cl)c2[nH]1)N1CCSCC1 value_kind="melting point" result="62 to 72 °C"
compound=CCNC(=NC(=Nc1ccccc1)N1CCOCC1)C(C)C value_kind="melting point" result="155 to 158 °C"
compound=CCCC(=O)c1nc(CCC)[nH]c1C#N value_kind="melting point" result="94 to 95 °C"
compound=CCOc1ccc(C=NO)cc1 value_kind="melting point" result="81 to 86 °C"
compound=O=C(NN=Cc1ccc2cc(OC(=O)c3ccc([N+](=O)[O-])o3)ccc2c1)OCc1ccccc1 value_kind="melting point" result="109 to 112 °C"
compound=CCCOc1ccccc1-c1ccc(N)c(=O)[nH]1 value_kind="melting point" result="158 to 161 °C"
compound="Cc1cnc(C2=NC(C)(C(C)C)C(=O)N2)c(C(=O)C(=O)N(C)c2ccccc2)c1 (configuration not stated)" value_kind="melting point" result="153 to 156 °C"
compound="O[C@@H]1CNCC[C@H]1Sc1ccccc1 (relative stereo)" value_kind="melting point" result="135 to 136 °C"
compound=O=c1ccn(-c2ccccc2)nc1-c1ccnn1-c1ccccc1 value_kind="melting point" result="179 to 180 °C"
compound=COc1ccccc1C(=O)Nc1nc2c(s1)CN(C)CC2 value_kind="melting point" result="164 to 166 °C"
compound=Oc1ccc2c(c1)CCCC(c1ccccc1)=C2c1ccc(OCCCCCSCc2ccccc2)cc1 value_kind="melting point" result="178 to 186 °C"
compound=CC1(C)COc2ccc(C(N)=O)cc21 value_kind="melting point" result="136 to 138 °C"
compound="CCOC(=O)C(C)c1ccc2oc(Nc3ccc(Cl)cc3)nc2c1 (configuration not stated)" value_kind="melting point" result="135 to 137 °C"
compound=N#Cc1ncn2c1[C@@H]1CCCN1C(=O)c1sccc1-2 value_kind="melting point" result="249 to 251 °C"
compound=O=C(O)Cc1ccc(Oc2ccc([N+](=O)[O-])cc2)cc1 value_kind="melting point" result="132 to 136 °C"
compound=CNc1cc(Oc2nn(C)c(C(F)(F)F)c2Cl)ccc1C#N value_kind="melting point" result="115 to 117 °C"
compound=Clc1cccc(-c2nc(NC3CCCCC3)c3ccccc3n2)n1 value_kind="melting point" result="218 to 221 °C"
compound=CCNc1cncc(C#N)c1 value_kind="melting point" result="110 °C"
compound=CCN(CCCC1CCN(CC(=O)N2c3ccccc3C(=O)Nc3cccnc32)CC1)C(=O)C(C)(C)CC value_kind="melting point" result="136 to 138 °C"
compound=N#Cc1ccc2c(c1)S(=O)(=O)c1ccc(F)cc1C2=O value_kind="melting point" result="260 °C"
compound="CCC(=O)NC(C)(C(=O)NS(=O)(=O)c1ccc(C)cc1)C(C)C (configuration not stated)" value_kind="melting point" result="166 to 168 °C"

====

value-kind: melting point

compound="CNC(=O)c1c(-c2ccccc2)noc1CC(O)c1ccc(C)cc1 (centres undefined)" result="148 to 150 °C"
compound="CN(C)CCC1(c2ccccc2)CCc2ccccc2C1=O (centres undefined)" result="71 to 72 °C"
compound="O=c1ccn(CCO)c(C(O)c2cccnc2)c1OCc1ccccc1 (centres undefined)" result="182 to 183 °C"
compound="CCC(C)(Oc1ccc(CC(=O)Nc2cc(C)cc(C)c2)cc1)C(=O)O (centres undefined)" result="131 to 133 °C"

====

value-kind: melting point

compound=CCN(C(C)=O)c1cccc(-c2ccc(Cl)nn2)c1 result="116 to 119 °C"
compound="CC(O)(c1ccsc1)c1nccs1 (stereo not drawn)" result="120 to 122 °C"
compound=CCCCCCCCCCCCCCOCc1ccc(C(C)=O)o1 result="61 to 62 °C"
compound="CCSc1cc(=O)c2c(O)cc(OC)c(C3CCN(C)CC3O)c2o1 (stereo not drawn)" result="60 °C"
compound=CC1CCN(c2ccc(-c3nc(C(=O)Nc4nccs4)c(-c4ccc(Cl)cc4)[nH]3)cc2)CC1 result="> 250 °C"
compound=CCC(=O)O[C@H]1C[C@@H](C(=O)OC)[C@]2(C)CC[C@H]3C(=O)O[C@H](c4ccoc4)C[C@]3(C)[C@H]2C1=O result="217 to 221 °C"
compound="CN1CCC(OC2c3cccc(Br)c3CCn3cc(-c4ccccc4)nc32)CC1 (stereo not drawn)" result="83 °C"
compound=CCCNC(=S)NC1=Nc2ccc(OC(F)(F)F)cc2SC1 result="180 to 182 °C"
compound=CCOC(=O)c1c(C)nn(-c2ccccn2)c1N result="80 to 81 °C"
compound="CCCCCCCCCC(C)NC(=O)C=Cc1cccc([N+](=O)[O-])c1 (stereo not drawn)" result="81 to 83 °C"
compound=N#CCOc1ccc2cc(Br)ccc2c1Cl result="126 to 127 °C"
compound=COC(=O)c1nnn(Cc2ccccc2F)c1C(=O)OC result="203 to 205 °C"
compound=CC(C)C(=O)N(Cc1ccccc1)c1nnn(C)n1 result="65 °C"

====

Each entry below lists one item and its recorded melting point value.
value-kind: melting point

entry_smiles=O=C1Cc2ccccc2SN(CCO)C1 value_kind="melting point" result="173 to 175 °C"
entry_smiles=O=C(C=Cc1ccccc1)c1cc(Cl)ccc1O value_kind="melting point" result="142 to 145 °C"
entry_smiles=COc1ccc2oc(N(C=O)[C@@H](Cc3ccccn3)c3ncc(-c4ccc(-n5ccnc5)cc4)n3C)cc2c1 value_kind="melting point" result="151 to 153 °C"
entry_smiles=O=C(NCc1ccccc1)c1ccc2[nH]ccc2c1 value_kind="melting point" result="155 to 160 °C"

====

Each entry below lists one item and its recorded melting point value.
value-kind: melting point

compound="OCCCCCCCCCCCCCCC(O)CNCCO (stereo not drawn)" value_kind="melting point" result="103 °C"
compound=CCCc1c(COc2ccc(C(=O)CCCCCCc3nnn[nH]3)cc2)ccc(C(C)=O)c1O value_kind="melting point" result="134 to 137 °C"
compound=COc1ccc2[nH]c(SC/C=C(\C)CCC=C(C)C)nc2c1 value_kind="melting point" result="113 to 116 °C"
compound=CCOCc1nc2c(N)nc3ccccc3c2n1CC1(O)CCN(C(=O)OC(C)(C)C)CC1 value_kind="melting point" result="195 to 197 °C"
compound="CC(C)OC(=O)C(O)C(CC1CCCCC1)NC(=O)C(Cc1c[nH]cn1)NC(=O)C(CCOc1ccc(F)cc1)Cc1cccc2ccccc12 (mixture of isomers)" value_kind="melting point" result="87 to 91 °C"
compound="CCOC(=O)C(C)Oc1ccc(Oc2cc3cc(Cl)ccc3nc2Cl)cc1 (stereo not drawn)" value_kind="melting point" result="56 °C"
compound=CCc1ccc(NC(=O)c2sccc2S(=O)(=O)Nc2onc(C)c2Br)cc1 value_kind="melting point" result="187 to 190 °C"
compound=CCCCCCCCCCOc1ccc(NC(=O)c2ccc(O)cc2)cc1OCCCCCCCCCC value_kind="melting point" result="137 °C"
compound=CCOC(=O)C[C@H](O)COC(c1ccccc1)(c1ccccc1)c1ccccc1 value_kind="melting point" result="98.8 to 101 °C"
compound="O=C(CCCc1ccccc1)N[C@H](Cc1ccc(F)cc1)[C@@H](O)c1ccc(C(F)(F)F)cc1 (racemic)" value_kind="melting point" result="155 to 156 °C"
compound=COc1cc(-c2nc(N(C)CCN)c3c(C)c(C#N)sc3n2)cc(OC)c1OC value_kind="melting point" result="> 290 °C"
compound=CCOC(=O)c1c(C(C)C)nc2c(c(C)nn2C)c1-c1ccc(F)cc1 value_kind="melting point" result="68 to 71 °C"
compound="CCCCC1CCC(CC(=O)c2ccc(-c3ccc(CC(C)CC)cc3F)cc2)CC1 (single isomer, unassigned; (+))" value_kind="melting point" result="71.4 to 72.1 °C"
